Test system: OVCAR-5
Assay: NCI tumour cell line growth inhibition, 48 h
Active and inactive are the calls of the source. Rule as the data show it: active = GI50 up to about 1.1 µM and inactive = higher.
Your response should consist of one outcome taken from active, inactive

Previously resolved entries follow.
[[record]]
compound = "O=C(O/N=C1/CCCC/C1=C\\c1ccccc1)c1ccc(Cl)cc1"
test_system = "OVCAR-5"
label = "inactive"

[[record]]
compound = "CC(=O)c1cc2c3c(c1)c1cc4c(cc1c(=O)n3CC2)OCO4"
test_system = "OVCAR-5"
label = "inactive"

[[record]]
compound = "COc1cc(C=O)cc(/C=N/c2ccc(Br)cc2)c1O"
test_system = "OVCAR-5"
label = "inactive"

[[record]]
compound = "C=COC(=O)N1C2CCCC(Cl)(C(C)=O)C1CC2 (stereo not given)"
test_system = "OVCAR-5"
label = "inactive"


Could you now consider this next compound?
What did the test return for CN(C)CCn1c(=O)c2ccc(NCCCN(C)CCCNc3ccc4c(=O)n(CCN(C)C)c(=O)n5c6ccccc6c(=O)c3c45)c3c(=O)c4ccccc4n(c1=O)c23 ?
active

* * *

Tested on: A549
Experiment: NCI tumour cell line growth inhibition, 48 h
The source made the active and inactive calls. No stated cut-off is given here; in the data, active = GI50 up to about 1.1 µM and inactive = higher.
Allowed answers: active, inactive

[[record]]
compound = "O=[N+]([O-])c1cc(C2ON=C(c3ccccc3)N2C23CC4CC(CC(C4)C2)C3)ccc1Cl (configuration not stated)"
label = "inactive"

[[record]]
compound = "C=C1C(=O)OC2C1C(OC(=O)/C(C)=C/C)CC(O)(CCl)C1C(OC(C)=O)C=C(C)C21O (configuration not stated)"
label = "inactive"

[[record]]
compound = "CC[C@@]1(O)CC(OC2CC(N3CCOCC3)C(O)C(C)O2)c2c(O)c3c(c(O)c2[C@H]1O)C(=O)c1cccc(O)c1C3=O (some centres not stated)"
label = "active"

[[record]]
compound = "C[C@H]1CC(=O)C[C@@H]2CC[C@@H]3[C@H](CC[C@]4(C)C(OC(=O)c5cccc6c(=O)c7ccccc7[nH]c56)CC[C@@H]34)[C@]21C (some centres not stated)"
label = "inactive"

[[record]]
compound = "O=C(C/C=C/c1ccccc1)c1ccccc1"
label = "inactive"

[[record]]
compound = "O=C(O)CCC(NC(=O)c1ccc(Nc2nc3ccc(C(F)(F)F)cc3nc2C(=O)O)cc1)C(=O)O (configuration not stated)"
label = "inactive"

[[record]]
compound = "CCCCCCC(=O)OC[n+]1ccc2c(C)c3[nH]c4ccccc4c3c(C)c2c1"
label = "active"

[[record]]
compound = "Cc1cc2nc3ccccc3n2c2nc(N)ccc12"
label = "inactive"


Per the assay record, what outcome was assigned to COc1cc2c(cc1OC)C(=O)/C(=C/c1ccc(N(C)C)cc1)CC2 ?
inactive

What call does the record list for O=S(=O)(Nc1ccccc1)c1ccc(-c2c3nc(c(-c4ccc(S(=O)(=O)Nc5ccccc5)cc4)c4ccc([nH]4)c(-c4ccc(S(=O)(=O)Nc5ccccc5)cc4)c4nc(c(-c5ccc(S(=O)(=O)Nc6ccccc6)cc5)c5ccc2[nH]5)C=C4)C=C3)cc1 ?
inactive

What outcome does the record of this test show for O=C(/C(=C/c1ccccc1)c1ccccc1)N1c2ccccc2CC1c1c[nH]c2ccccc12 (configuration not stated) ?
inactive

I would be grateful if you could indicate the recorded call for CC(C)OP(=O)(OC(C)C)c1nc(-c2ccccc2)n(-c2ccc([N+](=O)[O-])cc2)n1 .
inactive

Status in this test for COC(=O)c1cc(=O)nc2cc3cccccc3n12 ?
inactive
